# Assay Comment: Cytotoxicity against mouse NCTC-929 cells at 256 uM after 48 hrs by resazurin based fluorescence assay
# Type: cell-based
# Run Parameters: nctc-929, 48 h
Endpoint: Activity (%)
Numbers only here, please. The scale is %.

Known Activity results, listed for orientation:
Structure Smiles String: COc1cc([C@@H]2c3ccccc3N[C@H](c3ccccc3)[C@H]2C)ccc1O
Activity, %: 84.12
//
Structure Smiles String: COc1cc([C@@H]2c3cccc(N)c3N[C@H](c3ccccc3)[C@H]2C)ccc1O
Activity, %: 86.9
//
Structure Smiles String: COc1ccc([C@@H]2c3cc(N)ccc3N[C@H](c3ccccc3)[C@H]2C)cc1
Activity, %: 85.85
//
Structure Smiles String: COc1cc([C@@H]2c3cccc(C#N)c3N[C@H](c3ccc(O)cc3)[C@H]2C)ccc1O
Activity, %: 85.83
//
Structure Smiles String: COc1ccc([C@@H]2c3cc(OC)ccc3N(Cc3ccccc3)C[C@H]2C)cc1
Activity, %: 25.02

Let us move to another entry and its Activity.
query: What Activity value was documented for this molecule, "COc1ccc([C@@H]2c3ccccc3N(Cc3ccccc3)C[C@H]2C)cc1" ?
result: 42.15

---

# Assay Comment: Cytotoxicity against mouse NCTC-929 cells at 256 uM after 48 hrs by resazurin based fluorescence assay
# Type: cell-based
# Run Parameters: nctc-929, 48 h
Endpoint: Activity

Known Activity results, listed for orientation:
Structure Smiles String: COc1ccc([C@@H]2c3cc([N+](=O)[O-])ccc3N[C@H](c3ccccc3)[C@H]2C)cc1
Result: ND(Insoluble)
--
Structure Smiles String: COc1ccc([C@@H]2c3c(cccc3[N+](=O)[O-])N[C@H](c3ccccc3)[C@H]2C)cc1
Result: ND(Insoluble)
--
Structure Smiles String: COc1ccc([C@@H]2c3cc(Cl)ccc3N(Cc3ccccc3)C[C@H]2C)cc1
Result: ND(Insoluble)
--
Structure Smiles String: COc1cc([C@@H]2c3cccc([N+](=O)[O-])c3N[C@H](c3ccccc3[N+](=O)[O-])[C@H]2C)ccc1O
Result: ND(Insoluble)

query: What Activity value was documented for this compound, "COc1ccc([C@@H]2c3cccc([N+](=O)[O-])c3N[C@H](c3ccccc3)[C@H]2C)cc1" ?
result: ND(Insoluble)
